Origin of the recorded values: patent US20130090355A1

Measured EC50 of individual entries
Target: S100A4/myosin-IIA interaction (Homo sapiens)
Assay: Fluorescence polarization assay monitoring the S100A4/myosin-IIA interaction with FITC-MIIA^1908-1923 peptide
Format: binding
Settings: Table 1; sixteen concentration titrations; read-out: EC50
# number only, unit µM dropped from output

Identify the measured EC50 of O=Nc1c(O)c2ccccc2c2ccc([N+](=O)[O-])cc12 for S100A4/myosin-IIA interaction (Homo sapiens).
17

Identify the measured EC50 of O=C1NC(=S)S/C1=C\c1cc([N+](=O)[O-])ccc1Sc1ccc(C(F)(F)F)cn1 for S100A4/myosin-IIA interaction (Homo sapiens).
46

Identify the measured EC50 of [H]/N=C1\C(=O)c2ccccc2-c2ccccc21 for S100A4/myosin-IIA interaction (Homo sapiens).
4.3

Identify the measured EC50 of O=C(O)CC1OCC=C2CN3CCC45C6=CC(=O)C(=O)C([N+](=O)[O-])=C6NC4C1C2CC35 (stereo not shown) for S100A4/myosin-IIA interaction (Homo sapiens).
19

---

Test system: MDA-MB-231 cells
Test: MTT cell proliferation / growth inhibition assay
Conditions: Homo sapiens, MDA-MB-231, 24 h, read-out: MTT Assay IC50
assay endpoint: pIC50
# pIC50: negative log10 of molar concentration; output just the value

State the recorded pIC50 for this entry: O=C1NC(=S)S/C1=C\c1cc([N+](=O)[O-])ccc1Sc1ccc(C(F)(F)F)cn1
3.72

---

Target: S100A4/myosin-IIA interaction (Homo sapiens, UniProt P26447)
Sequence (P26447 whole entry, one chain of several): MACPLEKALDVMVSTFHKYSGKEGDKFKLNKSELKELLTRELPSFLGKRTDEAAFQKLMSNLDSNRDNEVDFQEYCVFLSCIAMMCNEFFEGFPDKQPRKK
Assay: Fluorescence polarization assay monitoring the S100A4/myosin-IIA interaction with FITC-MIIA^1908-1923 peptide
Type: binding
Settings: read-out: EC50 (inhibition of the S100A4/myosin-IIA interaction)
Measured pEC50 of individual entries
# pEC50: negative log10 of molar concentration; output just the value

1) O=C1C(SCCO)=C(SCCO)C(=O)c2ccccc21: 5.12

Please examine the following record next.
State the recorded pEC50 for this entry: O=C(O)CC1OCC=C2CN3CCC45C6=CC(=O)C(=O)C([N+](=O)[O-])=C6NC4C1C2CC35 (stereo not shown)
4.72
